Data provenance is PubChem BioAssay.

experiment: PSAC antagonists in infected red cells, primary screen, cell-based, P. falciparum Indochina, OD700, 18 h (AID 1157); conditions: P. falciparum Indochina infected erythrocytes, osmotic lysis OD700, 18 h; higher = more signal, called active from +8 up or from −8 down
Form field: z-score (one value per entry).
Quick one: just the number, no unit, thanks!

INSERT INTO measurements (compound, measured_number) VALUES
  ('COC(=O)C(CC#Cc1ccc2c(c1)[C@]1(C(=O)N2)[C@H](C(=O)O)[C@H]2C(=O)O[C@H](c3ccccc3)[C@H](c3ccccc3)N2[C@@H]1c1ccc(OCCO)cc1)C(=O)OC', -2.18),
  ('COCCOC(=O)N1C(=O)[C@@]2(c3cc(C#CCCO)ccc31)[C@H](c1ccccc1OCCO)N1[C@H](c3ccccc3)[C@H](c3ccccc3)OC(=O)[C@H]1[C@@H]2C(=O)NC[C@H](O)c1ccccc1', 0.442),
  ('Cc1ccc(N2C(=O)c3ccccc3[C@](C)(C(=O)NCC(F)(F)F)[C@@H]2c2ccc(CO)cc2)nc1', 0.127),
  ('COc1ccc(/C=C/C(=O)c2cccc(OCC(=O)OC(C)(C)C)c2)cc1', 1.41),
  ('C=CCC(OC(C)=O)[C@@H]1[C@@H](N(Cc2cc3ccccc3o2)C(=O)c2ccc(-c3ccccc3)cc2)c2cc(OCCCO)ccc2N1C(=O)c1ccc(-c2ccccc2)cc1 (stereo partly specified)', -0.0337);

Field: next compound
Query C[N+](C)(C)CCCC[C@@H]1NC(=O)[C@@H]2C[C@H](C(=O)NCCCCCNC(=O)CS)[C@H](c3ccc(O)cc3)N2C1=O yields z-score of -2.4
